- STUDY_TARGET: T1, recombinant human integrin αvβ6 (human, UniProt P18564 22-707)
- T1 construct: also called αvβ6 (R&D systems); αvβ6 receptor
- T1 sequence (chain, as listed by the source limits assumed, chain 1 of 2): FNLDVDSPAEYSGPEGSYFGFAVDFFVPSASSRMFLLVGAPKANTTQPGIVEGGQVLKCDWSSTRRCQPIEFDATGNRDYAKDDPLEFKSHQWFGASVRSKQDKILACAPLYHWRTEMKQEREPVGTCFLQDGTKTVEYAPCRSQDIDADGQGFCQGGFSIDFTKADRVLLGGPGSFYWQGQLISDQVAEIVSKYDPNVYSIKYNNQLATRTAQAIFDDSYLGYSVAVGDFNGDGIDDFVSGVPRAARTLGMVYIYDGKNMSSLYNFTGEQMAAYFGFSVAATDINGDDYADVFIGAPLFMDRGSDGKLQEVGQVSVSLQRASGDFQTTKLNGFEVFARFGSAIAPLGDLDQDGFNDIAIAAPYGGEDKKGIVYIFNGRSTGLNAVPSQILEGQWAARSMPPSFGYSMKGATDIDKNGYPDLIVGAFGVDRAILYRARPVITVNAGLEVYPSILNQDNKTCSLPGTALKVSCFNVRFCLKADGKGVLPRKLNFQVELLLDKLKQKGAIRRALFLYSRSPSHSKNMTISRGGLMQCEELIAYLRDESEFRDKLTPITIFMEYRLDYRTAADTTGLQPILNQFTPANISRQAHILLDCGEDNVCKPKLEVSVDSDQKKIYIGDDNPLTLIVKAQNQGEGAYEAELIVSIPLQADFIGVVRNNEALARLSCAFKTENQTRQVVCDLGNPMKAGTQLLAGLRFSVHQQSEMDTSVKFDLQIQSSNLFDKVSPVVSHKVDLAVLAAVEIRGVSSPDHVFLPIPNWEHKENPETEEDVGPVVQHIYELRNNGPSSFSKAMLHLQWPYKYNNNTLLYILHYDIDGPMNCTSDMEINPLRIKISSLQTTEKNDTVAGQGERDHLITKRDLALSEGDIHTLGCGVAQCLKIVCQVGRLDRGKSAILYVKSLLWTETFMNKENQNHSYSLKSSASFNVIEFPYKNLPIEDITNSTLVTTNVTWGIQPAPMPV
- T1 sequence (P18564 22-707 limits assumed, chain 2 of 2): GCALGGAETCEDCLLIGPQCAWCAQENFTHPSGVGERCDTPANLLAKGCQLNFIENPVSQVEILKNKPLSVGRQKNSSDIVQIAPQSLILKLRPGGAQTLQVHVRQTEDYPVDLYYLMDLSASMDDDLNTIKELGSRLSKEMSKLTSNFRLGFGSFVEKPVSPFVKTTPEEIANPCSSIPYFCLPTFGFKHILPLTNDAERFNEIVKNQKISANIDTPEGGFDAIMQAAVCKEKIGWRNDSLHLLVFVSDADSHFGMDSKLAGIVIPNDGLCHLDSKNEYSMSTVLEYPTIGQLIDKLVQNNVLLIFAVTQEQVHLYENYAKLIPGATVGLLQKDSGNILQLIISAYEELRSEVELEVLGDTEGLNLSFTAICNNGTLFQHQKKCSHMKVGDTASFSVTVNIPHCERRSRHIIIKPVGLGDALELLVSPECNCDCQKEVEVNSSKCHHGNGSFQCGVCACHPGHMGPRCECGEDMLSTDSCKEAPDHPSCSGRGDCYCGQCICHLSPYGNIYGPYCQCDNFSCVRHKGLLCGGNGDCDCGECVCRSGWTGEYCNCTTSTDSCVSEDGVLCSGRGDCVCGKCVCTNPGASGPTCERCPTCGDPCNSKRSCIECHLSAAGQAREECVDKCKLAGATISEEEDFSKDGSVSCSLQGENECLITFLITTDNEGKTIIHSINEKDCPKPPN
- PROTOCOL_DESCRIPTION: ELISA: integrin coated on plate, supernatant of transfected 293 cells at 1/10 dilution, anti-mouse IgG-HRP; score normalized to expression;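 also: scale runs from 0 (no apparent binding) to 4 (robust binding), with scores adjusted for clone protein expression as determined by a murine IgG ELISA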
OBSERVABLE: binding intensity score (0-4)

{"BINDER": "C6 VH / RGD3-7 Vk murine IgG (antibody, V domains shown, Murine IgG, supernatant of 293 cells; CDRL1 swap into the C6D4 murine IgG vector, VH not altered; also called C6RGD3-7) VH: QIQLLQSGPELKKPGETVKISCKASGYTFTDYSMHWVKQAPGKGLKWVARINTETGEPTFADDFRGRFAVSLETSASTAYLQINNLKNEDTATYFCAIFYYGRDSWGQGTTLTVSS VL: DIVMTQSPSSLAVSAGEKVTMSCKSSQSLLGRGDLGRLNALAWYQQKPGQSPRLLIYWASTRESGVPDRFTGSGSGTDFTLTISSVQAEDLAVYYCKQSYNLLSFGAGTKLELKR", "OBSERVABLE": "binding intensity score (0-4)", "ASSAY_RESULT": "2 score 0-4"}
{"BINDER": "C6 VH / RGD3-11 Vk murine IgG (antibody, V domains shown, Murine IgG, supernatant of 293 cells; CDRL1 swap into the C6D4 murine IgG vector, VH not altered; also called C6RGD3-11) VH: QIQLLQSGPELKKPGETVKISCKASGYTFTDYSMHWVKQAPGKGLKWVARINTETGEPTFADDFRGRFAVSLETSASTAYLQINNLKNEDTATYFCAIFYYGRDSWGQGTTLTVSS VL: DIVMTQSPSSLAVSAGEKVTMSCKSSQSLLGRGDLGRLKKQKDWYQQKPGQSPRLLIYWASTRESGVPDRFTGSGSGTDFTLTISSVQAEDLAVYYCKQSYNLLSFGAGTKLELKR", "OBSERVABLE": "binding intensity score (0-4)", "ASSAY_RESULT": "2 score 0-4"}
{"BINDER": "C6 VH / RGD3-1 Vk murine IgG (antibody, V domains shown, Murine IgG, supernatant of 293 cells; CDRL1 swap into the C6D4 murine IgG vector, VH not altered; also called C6RGD3-1) VH: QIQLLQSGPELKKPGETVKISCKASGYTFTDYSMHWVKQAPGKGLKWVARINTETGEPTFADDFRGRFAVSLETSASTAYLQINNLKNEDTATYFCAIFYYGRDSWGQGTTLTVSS VL: DIVMTQSPSSLAVSAGEKVTMSCKSSQSLLGRGDLGRLKKQKDHNALAWYQQKPGQSPRLLIYWASTRESGVPDRFTGSGSGTDFTLTISSVQAEDLAVYYCKQSYNLLSFGAGTKLELKR", "OBSERVABLE": "binding intensity score (0-4)", "ASSAY_RESULT": "4 score 0-4"}
